These entries and their values trace back to paper PMC3262993.

# Experimental Target: hCB1 (Homo sapiens)
# Sequence (P21554 whole entry): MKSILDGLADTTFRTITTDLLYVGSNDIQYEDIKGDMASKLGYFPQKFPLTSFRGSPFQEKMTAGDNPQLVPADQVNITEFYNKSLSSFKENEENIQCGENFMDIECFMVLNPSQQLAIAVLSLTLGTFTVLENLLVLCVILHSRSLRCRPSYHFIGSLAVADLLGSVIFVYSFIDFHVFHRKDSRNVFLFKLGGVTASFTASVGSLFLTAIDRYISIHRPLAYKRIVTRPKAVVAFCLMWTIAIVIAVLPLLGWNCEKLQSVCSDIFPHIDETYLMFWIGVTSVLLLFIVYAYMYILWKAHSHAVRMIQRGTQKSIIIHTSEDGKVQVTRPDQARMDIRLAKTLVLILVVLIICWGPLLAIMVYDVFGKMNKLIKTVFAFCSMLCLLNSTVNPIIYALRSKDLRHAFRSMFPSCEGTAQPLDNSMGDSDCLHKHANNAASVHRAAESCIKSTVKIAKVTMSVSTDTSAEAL
# Assay Overview: Radioligand competitive binding assay, hCB1
# Experimental Parameters: read-out: Ki hCB1; mean ± SEM
Assay Endpoint: Ki

Fill in: Ki of CC1(Cc2ccccc2)COc2cc(C(=O)N3CCCCC3)ccc21 (stereo not shown) [Compound 18] is ___
> 10 µM
